PARAMETER: melting point

> print(dat)
                                   compound      parameter   assay.result
1  C=CC[C@H]1C(=O)[C@@H](O)[C@H](O)C[C@]1(O)C(=O)O (hydrate or solvate) [(2R)-Ia-1, (2R)-2-allyl-3-dehydroquinic acid]  melting point  144 to 148 °C
2  O=C(O)[C@@]1(O)C[C@@H](O)[C@H](O)c2sccc21  melting point  128 to 131 °C
3  O=C1[C@@H](O)[C@H](O)C[C@](O)(C(=O)O)[C@H]1Cc1ccccc1 [(2R)-Ia-3, (2R)-2-benzyl-3-dehydroquinic acid]  melting point  146 to 148 °C
4  O=C(O)[C@@]1(O)C[C@@H](O)[C@H](O)c2sc(/C=C/C3CC3)cc21  melting point  103 to 105 °C
